# assayed target: HLA-B*46:01
# test summary: IEDB peptide-MHC binding, purified MHC/competitive/fluorescence; filed as Kd, often an IC50 or EC50 that approximates it; bounds were set here for any values at or beyond the usual limits of such assays
# test settings: source organism: Salmonella enterica subsp. enterica serovar Typhi
readout label: Kd (µM)

[[record]]
sequence_data = "YLRNAGAAM"
assayed_target = "HLA-B*46:01"
readout_label = "Kd"
unit_of_measure = "µM"
observed_result = 0.0547


* * *

# assayed target: HLA-A*68:02
# test summary: IEDB peptide-MHC binding, purified MHC/direct/fluorescence; filed as Kd, often an IC50 or EC50 that approximates it; bounds were set here for any values at or beyond the usual limits of such assays
# test settings: source organism: Crocodilepox virus
readout label: Kd

[[record]]
sequence_data = "VVARLGVPY"
observed_result = "≥ 20 µM"


* * *

# assayed target: HLA-B*27:03
# test summary: IEDB peptide-MHC binding, purified MHC/competitive/fluorescence; filed as Kd, often an IC50 or EC50 that approximates it; bounds were set here for any values at or beyond the usual limits of such assays
# test settings: source organism: Four Corners hantavirus
pKd: −log10 of the molar value.
readout label: pKd

[[record]]
sequence_data = "KSAFYQSYL"
assayed_target = "HLA-B*27:03"
observed_result = "≤ 4.70"


* * *

# assayed target: HLA-A*02:01
# test summary: IEDB peptide-MHC binding, purified MHC/competitive/fluorescence; bounds were set here for any values at or beyond the usual limits of such assays
# test settings: source organism: Vaccinia virus
pIC50: −log10 of the molar value.
// values below are reported pIC50
readout label: pIC50

[[record]]
sequence_data = "LSPETLVGV"
readout_label = "pIC50"
reading_qualifier = "="
observed_result = 6.04

[[record]]
sequence_data = "GMLRFANPL"
readout_label = "pIC50"
reading_qualifier = "="
observed_result = 6.19

[[record]]
sequence_data = "FRAFRNLNV"
readout_label = "pIC50"
reading_qualifier = "≤"
observed_result = 4.05

[[record]]
sequence_data = "PMMIQTRAA"
readout_label = "pIC50"
reading_qualifier = "="
observed_result = 4.74


* * *

# assayed target: HLA-B*07:02
# test summary: IEDB peptide-MHC binding, purified MHC/competitive/radioactivity; filed as Kd, often an IC50 or EC50 that approximates it; bounds were set here for any values at or beyond the usual limits of such assays
# test settings: source organism: Mammarenavirus lassaense
pKd: −log10 of the molar value.
readout label: pKd

[[record]]
sequence_data = "MPDCGMSVLA"
readout_label = "pKd"
observed_result = 5.41


* * *

# assayed target: HLA-B*46:01
# test summary: IEDB peptide-MHC binding, purified MHC/competitive/fluorescence; filed as Kd, often an IC50 or EC50 that approximates it; bounds were set here for any values at or beyond the usual limits of such assays
# test settings: source organism: Psychromonas sp. PRT-SC03
pKd: −log10 of the molar value.
readout label: pKd

[[record]]
sequence_data = "TFMYVFSTF"
observed_result = "≤ 4.70"


* * *

// values below are reported Kd
# assayed target: HLA-B*44:02
# test summary: IEDB peptide-MHC binding, purified MHC/direct/fluorescence; filed as Kd, often an IC50 or EC50 that approximates it; bounds were set here for any values at or beyond the usual limits of such assays
# test settings: source organism: West Nile virus
readout label: Kd

[[record]]
sequence_data = "YCPGTTVTL"
readout_label = "Kd"
observed_result = "≥ 20 µM"

[[record]]
sequence_data = "KIRNRIERL"
readout_label = "Kd"
observed_result = "≥ 20 µM"

